Assay: NCI Yeast Anticancer Drug Screen. Data for the mec2-1 strain (AID 157)
Details: S. cerevisiae mec2-1 strain, at 5.0 µM (retest, dose inferred, filed as 0.5)
Procedure: Growth inhibition of yeast strains with defined genetic alterations is measured as a screen for potential anti-cancer activity. Selected strains with alterations in DNA damage repair or cell cycle control were exposed to compounds and growth inhibition was measured relative to vehicle treated controls. The strain used in this assay is mec2-1
Compounds without any hit were thinned out: in the full panel of roughly 79,000, 15% have a hit. Active and inactive are the calls of the source. Rule as the data show it: active = growth inhibition above about 70%; inactive = the rest.
The reply should name one outcome from active, inactive

Solved entries (count: 2):
Cc1c(C2Cc3ccccc3N2C(=O)/C=C\C(=O)O)c2ccccc2n1C (stereo not given): inactive
O=C1c2cccc(O)c2C(=O)c2c(O)cc(CO)cc21: inactive

Called result for `NC(=O)Nc1cc(=O)[nH]c(=S)[nH]1`
inactive

Called result for `CCCCCCCCCCCC[n+]1ccc(C)cc1`
active

Called result for `CCn1nc(-c2ccccc2)c2c1N(C)c1ccccc1-n1c(-c3ccccc3)nnc1-2`
inactive

###

assay: NCI Yeast Anticancer Drug Screen. Data for the sgs1 mgt1 strain (AID 161);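 also: 0% = growth of cultures given vehicle only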; details: S. cerevisiae sgs1 mgt1 strain, at 50.0 µM (retest, dose inferred, filed as 5.0)
About 79,000 compounds went through this panel and 15% of them were active in at least one assay; those are over-represented in the sample as a whole. Active and inactive are the calls of the source. No stated cut-off is given here; in the data, active means growth inhibition above about 70%; inactive means the rest.
The reply should name one outcome from active, inactive

CCN1/C(=C\c2cc(C)nc(-c3ccccc3)[n+]2C)C=Cc2ccccc21: active
C/C(=N\Nc1n[nH]c(=S)n1N)c1c(O)cc(C)oc1=O: inactive
CCOC(=O)C12CCSC1C1(C#N)C(C#N)=CC2(N=P(c2ccccc2)(c2ccccc2)c2ccccc2)n2c(=O)n(-c3ccccc3)c(=O)n21 (configuration not stated): inactive
CCCCCCCCCCCCCCCCNCCCN(C)CCCN: active
N#C/C(=C\c1cc(Cl)cc(Cl)c1O)C(/C(C#N)=C/c1cc(Cl)cc(Cl)c1O)c1ccc2c(c1)OCO2 (configuration not stated): active

Called result for `O=[N+]([O-])c1c[nH]c2ncnc(SCc3ccccc3)c12`
active

Called result for `Oc1cccc(/C=C/c2ccncc2)c1`
inactive

###

assay: NCI Yeast Anticancer Drug Screen. Data for the sgs1 mgt1 strain (AID 161);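 also: 0% = growth of cultures given vehicle only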; conditions: S. cerevisiae sgs1 mgt1 strain, at 50.0 µM, stronger effect = higher value
This is part of a sample that, as a whole, favours compounds with a hit. Of some 79,000 tested, about 15% had one in any assay.
READOUT LABEL: growth inhibition (%)
Only the number, expressed in %, is required.

Use these answered entries as a reference point.
Nc1ccccc1SC(/C=C/NNC1=NC(c2ccccc2)C(c2ccccc2)=NN1)c1ccccc1 (stereo unspecified): 91.5
COc1cc(C2C(C(=O)Nc3ccc(Cl)c(Cl)c3)=C(C)NC(C)=C2C(=O)Nc2ccc(Cl)c(Cl)c2)ccc1O: 88.7
CC1=CCC[C@@H]2C1(C)CCC(C)[C@@]2(C)CC1=CC(=O)C=CC1=O (stereo partly specified): 88.8
CCCCCCCCC/C=C1\CCC(CN(C)C)C1=O (stereo unspecified): 90.8
CN(C)CCCCCNc1c2ccccc2nc2cccc([N+](=O)[O-])c12: 89.2

We now examine a further molecule.
Hello, please tell me recorded growth inhibition for this one: `Cc1ccc2[nH]c3c(c2c1)CCC/C3=N/N=C(N)N`
90.8

###

assay: NCI Yeast Anticancer Drug Screen. Data for the mec2-1 strain (AID 157); details: S. cerevisiae mec2-1 strain, at 50.0 µM (retest, dose inferred, filed as 5.0), stronger effect = higher value
The panel holds about 79,000 compounds, 15% with a hit somewhere; the sample as a whole holds those more often. Calls of active or inactive are those of the source. Rule as the data show it: active = growth inhibition above about 70%; inactive = the rest.
READOUT LABEL: growth inhibition

Oc1cc2ccccc2c2c1ccc1ccccc12: 97% (active)
CCCCCCSc1nc2ccc(N=Cc3ccccc3O)cc2s1: 91% (active)
CC(C)COC(=O)C1C2C=CC(CC2)C1C(=O)OCC(C)C (configuration not stated): 79% (active)

Hello, please tell me recorded growth inhibition for this one: COC(=O)C1(OC(=O)CCC(=O)O)C(=O)NC2=C1C(=O)c1ccccc1C2=O (configuration not stated)
-58% (inactive)

Hello, please tell me recorded growth inhibition for this one: `O=C(Oc1c([N+](=O)[O-])cc(-c2ccc([N+](=O)[O-])cc2)cc1[N+](=O)[O-])c1ccccc1`
89% (active)

Hello, please tell me recorded growth inhibition for this one: `O=C(CN1CCOCC1)Nc1nc(-c2ccc(Cl)cc2)cs1`
97% (active)

Hello, please tell me recorded growth inhibition for this one: `N#Cc1c(-c2ccc(Cl)c(Cl)c2)c(-c2ccc(Cl)c(Cl)c2)nn(CCO)c1=O`
98% (active)

###

assay: NCI Yeast Anticancer Drug Screen. Data for the sgs1 mgt1 strain (AID 161);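 also: 0% = growth of cultures given vehicle only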; details: S. cerevisiae sgs1 mgt1 strain, at 5.0 µM (retest, dose inferred, filed as 0.5), stronger effect = higher value
This is part of a sample that, as a whole, favours compounds with a hit. Of some 79,000 tested, about 15% had one in any assay. Active and inactive are the calls of the source. Cut-off read from the data, not from the text of the source: active = growth inhibition above about 70%; inactive = the rest.
Documented growth inhibition across a set of molecules

Use these answered entries as a reference point.
CCCCCCCCNS(=O)(=O)c1ccc(N)cc1: 7% (inactive)
Cc1c(C2Cc3ccccc3N2C(=O)/C=C\C(=O)O)c2ccccc2n1C (centres undefined): 39% (inactive)
CCCCCCCCc1cc[n+](C2=C([O-])c3ccccc3C(=O)C2=O)cc1: 100% (active)
CN(C)CCC(/C=C/c1ccccc1)=N\Nc1ccc(Cl)cc1: 56% (inactive)
CC(C)/C(Cl)=N/OC(=O)Nc1ccc(OC(F)(F)F)cc1: 39% (inactive)

Hello, please tell me recorded growth inhibition for this one: COc1cc([C@H]2c3c(cc(OC)c(OC)c3OC)CC3COC(=O)[C@@H]32)cc2c1OCO2 (some centres undefined)
9% (inactive)

Hello, please tell me recorded growth inhibition for this one: N#CC1(C#N)C2C=CC(C3CCC=C32)C1(C#N)C#N (centres undefined)
11% (inactive)

Hello, please tell me recorded growth inhibition for this one: `O=C(NNc1ccccc1)c1ccccc1Cl`
15% (inactive)

Hello, please tell me recorded growth inhibition for this one: `CC(C)Cn1cnc2c(SCc3ccccc3[N+](=O)[O-])nc(N)nc21`
0% (inactive)

###

Documented growth inhibition across a set of molecules
Experiment: NCI Yeast Anticancer Drug Screen. Data for the rad50 strain (AID 155);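 also: 0% = growth of vehicle-only cultures of the same strain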
Details: S. cerevisiae rad50 strain growth inhibition; at 50.0 µM; stronger effect = higher value
Procedure: Growth inhibition of yeast strains with defined genetic alterations is measured as a screen for potential anti-cancer activity. Selected strains with alterations in DNA damage repair or cell cycle control were exposed to compounds and growth inhibition was measured relative to vehicle treated controls. The strain used in this assay is rad50
Compounds without any hit were thinned out: in the full panel of roughly 79,000, 15% have a hit.
Only the number, expressed in %, is required.

CC(C)c1cc(C(C)C)c(Cl)c(Cl)c1O (tested in a mixture with another compound): 99.3

Hello, please tell me recorded growth inhibition for this one: NC(Cc1ccc(O)cc1O)C(=O)O (stereo not given)
7.7

Hello, please tell me recorded growth inhibition for this one: COc1ccc(C(=O)C(C(c2ccccc2)N2CCc3ccccc3C2)N2CCc3ccccc3C2)cc1 (stereo not given)
27.4

Hello, please tell me recorded growth inhibition for this one: `O=C(CSSCC(=O)Nc1ccccc1)Nc1ccccc1`
29.6

Hello, please tell me recorded growth inhibition for this one: CCN(CC)C(=O)C(C)OC(C)=O (stereo not given)
-21.4

###

experiment: NCI Yeast Anticancer Drug Screen. Data for the rad50 strain (AID 155);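 also: 0% = growth of vehicle-only cultures of the same strain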; settings: S. cerevisiae rad50 strain growth inhibition; at 50.0 µM (retest, dose inferred, filed as 5.0)
The panel holds about 79,000 compounds, 15% with a hit somewhere; the sample as a whole holds those more often. Calls of active or inactive are those of the source. Rule as the data show it: active = growth inhibition above about 70%; inactive = the rest.
The reply should name one outcome from true (1) (active), false (0) (inactive)

Solved entries (count: 8):
CC(=O)N(C)c1ccc(/C=C2\C=Cc3ccccc32)cc1: true (1)
O=C1C(Cl)=C(N2CCN(c3ccccn3)CC2)C(=O)c2ncccc21: true (1)
O=C(c1ccccc1)c1ccc(Cl)cc1: false (0)
C#CCN1CCN(C(=S)N/N=C(\C)c2ccccn2)CC1: true (1)
COc1cccc2c1C(=O)c1c(O)c3c(c(O)c1C2=O)C[C@@](O)(C(=O)CO)C[C@@H]3OC1CC(N)CC(C)O1 (some centres undefined): true (1)
Oc1cc2c(cc1C(Nc1ncccn1)c1ccc(F)cc1)OCO2 (centres undefined): false (0)
O=c1ccnc(Sc2ccc([N+](=O)[O-])cc2[N+](=O)[O-])[nH]1: true (1)
CC(=O)Oc1c(C2CCCCC2)cc([N+](=O)[O-])cc1[N+](=O)[O-]: true (1)

Called result for `O=c1cccccc1[O-].O=c1cccccc1[O-].O=c1cccccc1[O-].[Dy+3]`
false (0)

Called result for `CC(C)(C)c1ccc(C(=O)n2c(=S)oc3ccc(Cl)cc32)cc1`
true (1)

Called result for `CC(=O)[C@H]1CC[C@H]2[C@@H]3CC[C@H]4C[C@@H](N5CCOCC5)CC[C@]4(C)[C@H]3CC[C@]12C`
false (0)

Called result for CC1/C(=N\O)CC(c2ccccc2)N(C)C1c1ccccc1 (centres undefined)
true (1)

Called result for `Cc1ccccc1N1C(=O)C(=O)c2cccc(C)c21`
true (1)

Called result for O=C(NNc1ccccc1)C(O)C(=O)C(O)C(O)C(O)CO (centres undefined)
false (0)
